Recorded values, source paper PMC6407917.

biological target: CAMK2A (Homo sapiens, UniProt Q9UQM7)
Sequence (Q9UQM7 whole entry): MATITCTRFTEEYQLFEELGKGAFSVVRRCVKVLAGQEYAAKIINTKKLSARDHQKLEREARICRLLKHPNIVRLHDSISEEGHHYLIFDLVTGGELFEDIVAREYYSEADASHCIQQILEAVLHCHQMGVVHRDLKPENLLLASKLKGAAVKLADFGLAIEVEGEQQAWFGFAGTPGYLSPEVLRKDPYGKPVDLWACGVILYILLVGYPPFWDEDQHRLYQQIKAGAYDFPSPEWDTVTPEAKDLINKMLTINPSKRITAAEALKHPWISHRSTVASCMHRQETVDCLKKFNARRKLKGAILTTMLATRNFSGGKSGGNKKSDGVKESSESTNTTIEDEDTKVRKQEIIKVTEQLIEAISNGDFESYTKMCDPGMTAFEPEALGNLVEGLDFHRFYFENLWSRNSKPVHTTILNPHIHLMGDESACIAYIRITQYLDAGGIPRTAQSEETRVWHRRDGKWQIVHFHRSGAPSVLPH
Endpoint: IC50

Incoming: Enter recorded IC50 with CAMK2A (Homo sapiens, UniProt Q9UQM7) for COc1nc(N[C@H]2CC[C@H](NS(=O)(=O)CC(C)C)CC2)nc2[nH]nc(N3CCOC[C@H]3C)c12 [compound 39] here.
Outgoing: ≥ 20 µM

* * *

biological target: PKN2 (Homo sapiens); experiment: biochemical; design: species or system HEK293/K-562/placenta mixed human extract; Kinobeads chemoproteomic competition binding, quantified by TMT LC-MS/MS, dose response up to 20 uM
Sequence (Q16513 whole entry): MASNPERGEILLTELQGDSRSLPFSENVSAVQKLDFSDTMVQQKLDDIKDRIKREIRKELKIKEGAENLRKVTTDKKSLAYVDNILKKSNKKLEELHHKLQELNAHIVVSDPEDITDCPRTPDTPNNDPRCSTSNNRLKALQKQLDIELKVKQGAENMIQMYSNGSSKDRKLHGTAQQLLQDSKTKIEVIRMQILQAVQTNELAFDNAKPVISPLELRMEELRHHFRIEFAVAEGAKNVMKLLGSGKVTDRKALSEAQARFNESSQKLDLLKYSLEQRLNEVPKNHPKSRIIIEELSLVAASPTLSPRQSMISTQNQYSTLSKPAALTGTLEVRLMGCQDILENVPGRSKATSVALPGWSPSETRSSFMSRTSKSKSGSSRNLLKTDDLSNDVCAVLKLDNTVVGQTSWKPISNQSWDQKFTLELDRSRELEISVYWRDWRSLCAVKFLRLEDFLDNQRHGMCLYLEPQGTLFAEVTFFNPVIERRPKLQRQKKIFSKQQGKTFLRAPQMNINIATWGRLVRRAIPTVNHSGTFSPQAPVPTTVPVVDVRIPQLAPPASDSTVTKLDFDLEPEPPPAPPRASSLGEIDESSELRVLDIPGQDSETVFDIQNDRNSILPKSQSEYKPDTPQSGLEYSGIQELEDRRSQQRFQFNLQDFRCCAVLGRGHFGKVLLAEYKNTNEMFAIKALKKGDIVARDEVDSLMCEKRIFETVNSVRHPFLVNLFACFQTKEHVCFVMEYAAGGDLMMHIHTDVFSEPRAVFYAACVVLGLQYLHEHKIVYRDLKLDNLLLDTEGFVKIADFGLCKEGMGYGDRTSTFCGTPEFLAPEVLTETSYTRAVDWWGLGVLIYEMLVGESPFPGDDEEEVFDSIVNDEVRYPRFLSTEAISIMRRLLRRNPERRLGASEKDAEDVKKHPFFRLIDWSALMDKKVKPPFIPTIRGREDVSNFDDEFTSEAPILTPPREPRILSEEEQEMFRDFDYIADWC
pIC50: −log10 of the molar value.
Endpoint: pIC50

Incoming: For the molecule COc1nc(N[C@H]2CC[C@H](NS(=O)(=O)CC(C)C)CC2)nc2[nH]nc(N3CCOC[C@H]3C)c12 , report pIC50.
Outgoing: ≤ 4.70

* * *

Biological target: UniProt:P15735
Sequence (P15735 1-406): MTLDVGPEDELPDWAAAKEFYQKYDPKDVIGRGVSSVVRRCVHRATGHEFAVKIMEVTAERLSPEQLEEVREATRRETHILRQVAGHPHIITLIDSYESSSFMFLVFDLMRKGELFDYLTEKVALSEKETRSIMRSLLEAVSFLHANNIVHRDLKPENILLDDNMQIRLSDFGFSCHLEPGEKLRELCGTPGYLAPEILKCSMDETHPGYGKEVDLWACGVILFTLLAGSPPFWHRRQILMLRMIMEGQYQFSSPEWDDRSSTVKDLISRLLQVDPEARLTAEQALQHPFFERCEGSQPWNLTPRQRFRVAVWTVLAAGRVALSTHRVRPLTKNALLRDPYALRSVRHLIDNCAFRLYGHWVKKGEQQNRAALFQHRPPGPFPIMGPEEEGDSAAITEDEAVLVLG
Experiment: biochemical
Set-up: species or system HEK293/K-562/placenta mixed human extract; Kinobeads chemoproteomic competition binding, quantified by TMT LC-MS/MS, dose response up to 20 uM
pIC50: −log10 of the molar value.
Endpoint: pIC50

Incoming: Note down pIC50 recorded for COc1ccccc1-c1n[nH]c2nc(N[C@H]3CC[C@H](NS(=O)(=O)CCC(F)(F)F)CC3)nc(OC)c12 [compound 31]
Outgoing: ≤ 4.70

* * *

molecular target: STK16 (Homo sapiens, UniProt O75716); experiment: biochemical; design: species or system HEK293/K-562/placenta mixed human extract; Kinobeads chemoproteomic competition binding, quantified by TMT LC-MS/MS, dose response up to 20 uM
Sequence (O75716 whole entry): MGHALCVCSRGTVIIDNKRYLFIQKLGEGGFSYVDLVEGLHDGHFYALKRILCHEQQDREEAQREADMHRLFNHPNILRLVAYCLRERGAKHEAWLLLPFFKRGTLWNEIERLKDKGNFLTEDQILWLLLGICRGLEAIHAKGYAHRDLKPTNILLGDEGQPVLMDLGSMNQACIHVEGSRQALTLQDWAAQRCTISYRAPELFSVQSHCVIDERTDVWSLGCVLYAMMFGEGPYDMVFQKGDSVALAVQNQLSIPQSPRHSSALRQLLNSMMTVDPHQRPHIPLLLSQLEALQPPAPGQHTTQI
Endpoint: IC50

Incoming: Look up and state reported IC50 for COc1nc(N[C@H]2CC[C@H](NS(=O)(=O)CC(C)C)CC2)nc2[nH]nc(N3CCOC[C@H]3C)c12 [compound 39]
Outgoing: ≥ 20 µM

* * *

target: FN3K (Homo sapiens, UniProt Q9H479); test: biochemical; parameters: species or system HEK293/K-562/placenta mixed human extract; Kinobeads chemoproteomic competition binding, quantified by TMT LC-MS/MS, dose response up to 20 uM
Sequence (Q9H479 whole entry): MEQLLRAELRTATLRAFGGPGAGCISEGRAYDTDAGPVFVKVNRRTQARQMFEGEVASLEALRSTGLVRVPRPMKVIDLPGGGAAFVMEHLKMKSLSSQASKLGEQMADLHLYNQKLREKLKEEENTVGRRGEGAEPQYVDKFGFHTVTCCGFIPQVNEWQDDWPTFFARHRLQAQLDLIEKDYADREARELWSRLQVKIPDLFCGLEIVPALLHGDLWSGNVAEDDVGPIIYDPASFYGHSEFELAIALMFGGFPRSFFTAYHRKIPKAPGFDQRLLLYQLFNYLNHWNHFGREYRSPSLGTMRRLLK
Endpoint: IC50

Incoming: Identify measured IC50 associated with COc1ccccc1-c1n[nH]c2nc(N[C@H]3CC[C@H](NS(=O)(=O)CCC(F)(F)F)CC3)nc(OC)c12 [compound 31]
Outgoing: ≥ 20 µM

* * *

target: PLK1 (Homo sapiens); assay: biochemical; parameters: species or system HEK293/K-562/placenta mixed human extract; Kinobeads chemoproteomic competition binding, quantified by TMT LC-MS/MS, dose response up to 20 uM
Sequence (P53350 whole entry): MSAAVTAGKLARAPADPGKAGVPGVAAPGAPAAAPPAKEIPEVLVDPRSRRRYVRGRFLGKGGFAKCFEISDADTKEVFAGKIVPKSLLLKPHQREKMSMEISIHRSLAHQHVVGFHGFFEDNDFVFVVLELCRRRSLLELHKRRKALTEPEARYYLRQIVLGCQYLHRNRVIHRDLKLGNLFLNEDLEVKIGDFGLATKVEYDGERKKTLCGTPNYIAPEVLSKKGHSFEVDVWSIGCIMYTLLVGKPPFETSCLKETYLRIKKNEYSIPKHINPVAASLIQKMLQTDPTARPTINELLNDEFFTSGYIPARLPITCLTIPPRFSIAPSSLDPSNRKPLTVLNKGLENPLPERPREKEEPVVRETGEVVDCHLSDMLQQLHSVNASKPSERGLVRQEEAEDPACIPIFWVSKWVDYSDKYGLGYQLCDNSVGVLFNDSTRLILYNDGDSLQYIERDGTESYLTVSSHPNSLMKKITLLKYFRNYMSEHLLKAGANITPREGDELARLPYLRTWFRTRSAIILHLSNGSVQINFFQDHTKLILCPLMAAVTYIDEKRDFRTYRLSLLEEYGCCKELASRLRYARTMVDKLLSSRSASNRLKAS
pIC50: −log10 of the molar value.
Endpoint: pIC50

Incoming: Kindly indicate its recorded pIC50. Item: COc1nc(N[C@H]2CC[C@H](NS(=O)(=O)CC(C)C)CC2)nc2[nH]nc(N3CCOC[C@H]3C)c12
Outgoing: ≤ 4.70
